Where do these numbers come from? They come from the RNAGym collection of RNA variant scans (doi:10.7554/elife.90254).

B1: LINE1-mini (parent)
chain: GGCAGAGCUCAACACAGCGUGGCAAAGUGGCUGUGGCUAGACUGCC

variants of: B1; assay: self-cleavage, relative activity (ratio to wild type); higher = more cleavage; in vitro, sequencing; the parent is a self-cleaving ribozyme
recorded-endpoint: self-cleavage
Give bare numbers.

Worked cases, answers included:
1. A24U A39G :: 0.14
2. C23A G33U :: 0.2
3. A4C G30U :: 0.19
4. G22U G36A :: 0.15
5. G2U G40C :: 0.03
6. G1C U43G :: 0.13
7. A4G C13G :: 0.2
8. U38A G44C :: 0.09

Need self-cleavage for each of these variants.
1. G17C U20G
2. A16U A25C
3. G2A C46A
4. A25U C37A
5. A14C U28C

1: 0.14; 2: 0.03; 3: 1.23; 4: 0.06; 5: 0.07

Need self-cleavage for each of these variants.
1. A14C G30A
2. U28C G30U
3. A4U G19A
4. A11U A12G
5. C37U C45G
6. G21C U32A

1. 0.21
2. 0.7
3. 0.68
4. 0.03
5. 0.08
6. 0.13

Need self-cleavage for each of these variants.
1. U32A C46A
2. G2A C37G
3. C3A C18A
4. G7U C42G
5. C8A C15U
6. A14U U32A

1: 0.08; 2: 0.13; 3: 0.18; 4: 0.12; 5: 0.23; 6: 0.05
